System: NCI-H1694 (Small Cell Lung Carcinoma)
EXPERIMENT_SUMMARY: combination Emax (second highest fraction inhibited in the dose matrix, 72 h); higher = more inhibition; extreme values may be limits of the assay
Below is a list of entries, each paired with its recorded combination Emax value.
# output: bare number, no unit

Here is how some molecules turned out for combination Emax.
# MOLECULE, combination Emax
measured = [
    ("C[C@@H](c1ccc2nccn2c1)n1nnc2ncc(-c3cnn(C)c3)nc21 [Savolitinib] + CN(CC[C@H](CSC1=CC=CC=C1)NC2=C(C=C(C=C2)S(=O)(=O)NC(=O)C3=CC=C(C=C3)N4CCC(CC4)[C@H](C5=CC=CC=C5C6=CC=C(C=C6)Cl)O)S(=O)(=O)C(F)(F)F)CCO [AZD4320] (first compound max 1 µM, 7x7, partner max 1 µM)", 0.622),
    ("CCN(CCO)CCCOc1ccc2c(Nc3cc(CC(=O)Nc4cccc(F)c4)[nH]n3)ncnc2c1 [AZD2811] + C=CCn1c(=O)c2cnc(Nc3ccc(N4CCN(C)CC4)cc3)nc2n1-c1cccc(C(C)(C)O)n1 [AZD1775] (first compound max 1 µM, partner max 1 µM)", 0.374),
    ("COc1cc2ncnc(Nc3ccc(F)c(Cl)c3)c2cc1OCCCN1CCOCC1 [Gefitinib] + CC(C)n1c(=O)n(C)c2cnc3cc(F)c(-c4ccc(OCCCN5CCCCC5)nc4)cc3c21 [AZD1390] (first compound max 10 µM, 7x7, partner max 0.3 µM)", 0.19),
]

// map Cc1cc2ncnn2cc1Nc1ncc2c(n1)n(C1CCOCC1)c(=O)n2C [AZD7648] + O=C(c1cc(Cc2n[nH]c(=O)c3ccccc23)ccc1F)N1CCN(C(=O)C2CC2)CC1 [Olaparib] (first compound max 10 µM, 7x7, partner max 10 µM) to recorded combination Emax (system: NCI-H1694 (Small Cell Lung Carcinoma))
0.152

# iterate: NC1(C(=O)N[C@@H](CCO)c2ccc(Cl)cc2)CCN(c2ncnc3[nH]ccc23)CC1 [Capivasertib] + Cn1cnc2c(F)c(Nc3ccc(Br)cc3Cl)c(C(=O)NOCCO)cc21 [Selumetinib] (first compound max 10 µM, 7x7, partner max 10 µM)
0.204

# iterate: CCN(CCO)CCCOc1ccc2c(Nc3cc(CC(=O)Nc4cccc(F)c4)[nH]n3)ncnc2c1 [AZD2811] + C[C@@H]1COCCN1C2=NC(=NC(=C2)C3(CC3)[S@](=N)(=O)C)C4=C5C=CNC5=NC=C4 [AZD6738] (first compound max 1 µM, 7x7, partner max 10 µM)
0.73

# iterate: COc1cccc(OCCCN)c1-c1cc(Nc2cnc(C#N)cn2)n[nH]1 [Prexasertib] + CN(C)CCCOc1ccc(-c2ccc3ncc4c(c3c2)n(C2CCOCC2)c(=O)n4C)cn1 [AZD0156] (first compound max 1 µM, 7x7, partner max 1 µM)
0.794
